target: T1, ZIKV (prM80E) with a C-terminal myc-myc-hexahistidine tag (Zika virus, UniProt A0A024B7W1 104-694); test: SPR, mAb captured, 25C
T1 construct: also called ZIKV (prM80E)-mmH; ZIKV-mmH
experimental_endpoint: kon (M⁻¹ s⁻¹)

- H4H25617P (antibody, V domains shown) VH: EVQLVESGGGLVQPGGSLRLSCSASGFTFTTYAMSWVRQAPGRGLEWVSSISGTGVSTYYADSVKGRFTISRDNSKNALYLQMNSLTAEDTAVYYCAKDSGTYHWGQGTLVTVSS VL: EIVLTQSPATLSLSPGERATLSCRASQSVDSYLAWYQQKPGQAPRLLIYDASNRATGIPARFSGSGSGTDFTLTISSLESEDFAVYYCQQRRNWPQFTFGGGTKVEIK: 250000
- H4H25637P (antibody, V domains shown) VH: QLQLQESGPGLVKPSETLSLTCTVSGDSISSSNYFWGWIRQPPGKGLEWIGNIYYSGDTYYNPSLKSRVTMSVDTSKKQFSLKLRSVTAADTAVYYCARGRPYYDFWSGYFDYWGQGTLVTVSS VL: EIVLTQSPGTLSLSPGERATLPCRASQSVSSSYLAWYQQKPGQAPRLLIYGASSRATGIPDRFRGSGSGTDFTLTISRLEPEDFAVYYCQQYGTAPWTFGQGTKVEIK: 617000
- H4H25602P (antibody, V domains shown) VH: EVQLVESGGGLVQPGGSLRLSCAASGFTVSSNYMSWVRQAPGSGLEWVSVIYSGGITHYVDSVKGRFTISRHNSKNTLYLQMNSLRAEDTAMYYCARERYSGITGNPYGFDIWGQGTMVTVSS VL: DIQLTQSPSFLSASVGDRVTITCWASQDISSYLAWYQQKPGIAPKLLIYAASTLQSGVPSRFSGSGSGTEFTLTISSLQPEDFATYYCQQLNIYPFTFGPGTKVDIK: 286000

meta.source: patent US20180016324A1
